Quick list: koff per entry.
# tested_on: T1, mouse recombinant ADAMTS5 (mouse, UniProt Q9R001 262-622, limits assumed)
# T1 construct: in house, HEK293, His tag in the entry
# T1 sequence: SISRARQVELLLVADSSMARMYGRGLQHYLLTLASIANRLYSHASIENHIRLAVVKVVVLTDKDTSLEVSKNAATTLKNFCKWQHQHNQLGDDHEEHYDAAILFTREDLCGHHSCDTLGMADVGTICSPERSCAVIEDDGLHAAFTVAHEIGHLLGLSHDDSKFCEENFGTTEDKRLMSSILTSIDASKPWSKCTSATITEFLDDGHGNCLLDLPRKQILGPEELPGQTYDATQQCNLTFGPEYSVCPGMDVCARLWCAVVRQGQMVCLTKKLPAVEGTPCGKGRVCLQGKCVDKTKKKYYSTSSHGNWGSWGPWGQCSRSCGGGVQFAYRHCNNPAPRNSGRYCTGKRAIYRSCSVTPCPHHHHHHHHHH
# assay_comment: SPR off-rate, Biacore T100, ADAMTS5 immobilised, experiment 2
Please state the figure in s⁻¹; there is no need to write the unit.

Sure, the documented koff for Nanobody 11B06 (VHH, tagged as tested (anti-Flag detection, IMAC)) VHH: EVQLVESGGGLVQAGGSLRLSCAASGLTFRRNAMGWFRQAPGKERELLAGINWSGGTTYYVDSVKGRFTISRDNAKNTVDLQMISPKPEDTAVYYCAADGDIGTLVNDENPRYWGQGTLVTVSS is 0.00053

---
Sure, the documented koff for Nanobody 9D03 (VHH, tagged as tested (anti-Flag detection, IMAC); also called 09D03; 9D3) VHH: EVQLVESGGGLVQSGGSLRLSCAASGSAVSVNAMAWYRQAPGKQRDFVAGISRSAGRTYYTDSVKDRFTIARDSAKNTVYLQMNRLKPEDTAVYYCAADLDPNRIFSRDEAAYWGQGTLVTVSS is 0.0037

Sure, the documented koff for Nanobody 3B02 (VHH, tagged as tested (anti-Flag detection, IMAC); also called 03B02; 3B2) VHH: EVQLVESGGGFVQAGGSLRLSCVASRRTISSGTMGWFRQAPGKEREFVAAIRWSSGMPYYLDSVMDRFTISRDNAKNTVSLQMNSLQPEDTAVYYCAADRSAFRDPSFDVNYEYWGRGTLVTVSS is 0.002
